- target-or-test-system: human EHMT2 913-1193 (Homo sapiens, UniProt Q96KQ7)
- Sequence (Q96KQ7 913-1193): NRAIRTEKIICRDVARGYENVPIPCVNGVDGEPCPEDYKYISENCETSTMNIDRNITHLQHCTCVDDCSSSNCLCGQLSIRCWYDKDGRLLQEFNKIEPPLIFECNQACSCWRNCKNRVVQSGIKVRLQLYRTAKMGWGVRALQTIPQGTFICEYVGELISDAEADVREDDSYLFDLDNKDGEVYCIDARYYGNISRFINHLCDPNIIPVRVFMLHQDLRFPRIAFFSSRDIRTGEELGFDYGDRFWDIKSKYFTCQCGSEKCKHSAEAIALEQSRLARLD
- procedure-text: EHMT2 enzyme assay on histone peptide substrate (3H-SAM SPA)
- assay-conditions: EHMT2 IC50, recombinant human EHMT2 913-1193, histone peptide substrate
Kindly state IC50 for each of the entries shown.

I am curious: what IC50 value has been reported for CNc1cc(C)nc(Nc2cc3c(c(C4=CCN(C)CCC4)c2F)OCCC3)n1 ?
< 0.1 µM

Queued: CNc1cc(C)nc(Nc2cc3c(c(C4=CCNCCC4)c2F)OCCO3)n1
< 0.1 µM

Queued: CNc1cc(C)nc(Nc2cc3c(c(C4=C[C@@H](C)NCCC4)c2F)OCC3)n1
0.1 to 0.5 µM

Queued: CNc1cc(Nc2cc3c(c(C4=CCNCCC4)c2F)OCCC3)nc(C)c1F
< 0.1 µM

Queued: CNc1nc(Nc2cc3c(c(C4=CCNCCC4)c2F)OCCO3)nc(C)c1F
0.5 to 2 µM

Queued: CNc1cc(C)nc(Nc2cc3c(c(C4=CCNCC4)c2)OCC3)n1
0.5 to 2 µM

Queued: Cc1cc(NC2CCC2)nc(Nc2cc3c(c(C4=CCNCCC4)c2)OCC3)n1
0.1 to 0.5 µM

Queued: Cc1cc(NCC2CCCO2)nc(Nc2cc3c(c(C4=CCNCCC4)c2)OCC3)n1 (centres unmarked)
0.1 to 0.5 µM

Queued: CNc1cc(C)nc(Nc2cc3c(c(C4C[C@H]5CNC[C@H]5C4)c2)OCCC3)n1 (some centres unmarked)
0.1 to 0.5 µM

Queued: CNc1cc(C)nc(Nc2cc3c(c(C4=CCNC(C)CC4)c2C)OCC3)n1 (single isomer, unassigned) [Compound 383-a]
0.5 to 2 µM

Queued: CNc1cc(C)nc(Nc2cc3c(c(C4=CCN(C)CCC4)c2F)OCO3)n1
< 0.1 µM

Queued: CNc1nc(Nc2cc3c(c(C4=CCNCCC4)c2F)OCO3)nc(C)c1F
0.1 to 0.5 µM

Queued: CNc1cc(C)nc(Nc2c(F)c3c(c(C4=CCN(C)CCC4)c2F)OCC3)n1
0.5 to 2 µM

Queued: [2H]Cc1nc(Nc2cc3c(c(C4=CCN(C)CCC4)c2F)OCC3)nc(NC)c1F
0.5 to 2 µM

Queued: CNc1cc(C)nc(Nc2cc3c(c(C4=CCNCCC4)c2)OCC3)c1
< 0.1 µM

Queued: CNc1cc(C)nc(Nc2cc3c(c(C4CCCNCC4)c2)OCCC3)n1 (centres unmarked)
0.1 to 0.5 µM

Queued: CNc1nc(Nc2cc(OCCCN3CCCC3)c3occc3c2)nc(C)c1F
> 2 µM

FYI, the data here is from patent US20240368139A1.
